Reference source for all entries: PubChem BioAssay

test target: Neurogenic locus notch homolog protein 2 (Homo sapiens) (UniProt Q04721)
Sequence (Q04721 whole entry, looked up): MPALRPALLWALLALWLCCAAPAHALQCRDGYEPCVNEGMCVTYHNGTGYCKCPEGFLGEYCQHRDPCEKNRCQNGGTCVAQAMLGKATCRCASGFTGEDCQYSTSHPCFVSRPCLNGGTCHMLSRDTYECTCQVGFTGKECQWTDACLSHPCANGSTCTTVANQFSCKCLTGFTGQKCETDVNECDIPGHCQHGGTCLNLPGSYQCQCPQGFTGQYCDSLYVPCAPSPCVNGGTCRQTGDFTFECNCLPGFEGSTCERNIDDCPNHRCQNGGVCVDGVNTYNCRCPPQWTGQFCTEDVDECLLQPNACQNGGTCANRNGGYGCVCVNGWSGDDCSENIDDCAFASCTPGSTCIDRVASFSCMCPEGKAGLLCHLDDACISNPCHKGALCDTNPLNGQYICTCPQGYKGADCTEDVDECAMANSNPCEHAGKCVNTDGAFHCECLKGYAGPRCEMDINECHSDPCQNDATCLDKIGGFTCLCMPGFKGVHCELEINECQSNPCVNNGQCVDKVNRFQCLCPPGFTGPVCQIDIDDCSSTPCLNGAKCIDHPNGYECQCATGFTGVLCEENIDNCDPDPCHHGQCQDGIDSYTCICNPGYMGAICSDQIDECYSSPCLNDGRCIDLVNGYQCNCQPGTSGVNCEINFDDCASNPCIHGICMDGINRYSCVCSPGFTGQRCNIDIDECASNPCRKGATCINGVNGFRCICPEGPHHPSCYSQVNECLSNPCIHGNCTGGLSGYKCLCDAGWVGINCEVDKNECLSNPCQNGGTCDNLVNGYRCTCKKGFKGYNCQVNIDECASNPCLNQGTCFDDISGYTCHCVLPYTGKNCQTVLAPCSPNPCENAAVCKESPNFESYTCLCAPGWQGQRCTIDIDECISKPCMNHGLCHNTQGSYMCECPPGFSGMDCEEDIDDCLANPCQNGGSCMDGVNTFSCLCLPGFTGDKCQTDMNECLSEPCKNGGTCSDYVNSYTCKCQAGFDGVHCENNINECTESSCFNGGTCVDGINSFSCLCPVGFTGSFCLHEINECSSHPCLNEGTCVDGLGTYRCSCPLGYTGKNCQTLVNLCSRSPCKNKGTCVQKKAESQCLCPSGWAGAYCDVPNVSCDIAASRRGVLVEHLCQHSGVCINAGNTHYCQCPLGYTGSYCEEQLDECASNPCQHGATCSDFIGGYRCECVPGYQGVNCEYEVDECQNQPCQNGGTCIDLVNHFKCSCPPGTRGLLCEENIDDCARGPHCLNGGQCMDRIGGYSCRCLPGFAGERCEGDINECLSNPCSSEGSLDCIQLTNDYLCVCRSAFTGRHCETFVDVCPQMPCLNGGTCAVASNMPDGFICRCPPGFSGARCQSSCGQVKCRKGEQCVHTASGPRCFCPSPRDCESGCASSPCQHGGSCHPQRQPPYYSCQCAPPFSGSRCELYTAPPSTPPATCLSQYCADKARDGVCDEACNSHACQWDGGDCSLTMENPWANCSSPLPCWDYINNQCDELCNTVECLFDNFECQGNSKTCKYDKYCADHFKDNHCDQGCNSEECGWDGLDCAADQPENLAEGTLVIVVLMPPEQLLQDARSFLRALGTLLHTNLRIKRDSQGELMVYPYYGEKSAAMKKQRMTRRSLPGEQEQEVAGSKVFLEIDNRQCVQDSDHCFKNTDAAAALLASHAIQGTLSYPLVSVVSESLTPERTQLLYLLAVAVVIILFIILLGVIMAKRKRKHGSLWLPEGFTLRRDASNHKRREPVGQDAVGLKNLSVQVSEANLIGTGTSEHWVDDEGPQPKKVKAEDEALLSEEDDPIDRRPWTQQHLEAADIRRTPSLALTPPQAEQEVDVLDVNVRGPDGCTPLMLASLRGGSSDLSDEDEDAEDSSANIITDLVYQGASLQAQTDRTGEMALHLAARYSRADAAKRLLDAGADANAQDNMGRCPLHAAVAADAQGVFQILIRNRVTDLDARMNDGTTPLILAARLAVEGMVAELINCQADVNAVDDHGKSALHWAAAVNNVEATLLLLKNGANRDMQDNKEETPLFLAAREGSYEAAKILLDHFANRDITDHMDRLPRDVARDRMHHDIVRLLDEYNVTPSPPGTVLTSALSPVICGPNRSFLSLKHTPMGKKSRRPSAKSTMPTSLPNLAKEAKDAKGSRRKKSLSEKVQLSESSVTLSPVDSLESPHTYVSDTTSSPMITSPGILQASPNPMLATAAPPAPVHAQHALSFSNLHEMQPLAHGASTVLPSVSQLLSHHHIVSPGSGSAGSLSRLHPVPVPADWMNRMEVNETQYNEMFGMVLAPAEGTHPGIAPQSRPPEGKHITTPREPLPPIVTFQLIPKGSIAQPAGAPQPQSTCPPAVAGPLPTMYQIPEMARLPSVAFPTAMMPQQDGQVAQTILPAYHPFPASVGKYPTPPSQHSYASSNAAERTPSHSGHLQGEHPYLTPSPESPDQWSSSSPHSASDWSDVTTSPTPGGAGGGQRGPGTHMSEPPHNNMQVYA
experiment description: small molecules binding Notch2 protein – biochemical, small-molecule microarray, 635 nm fluorescence, stem cell growth factors, primary screen (AID 1073)
assay conditions: higher = more signal
# key: entry, value: composite z-score

compound | test target | composite z-score
C=C1C(=O)C=C2CN(C(=O)c3ccccc3)[C@@](Cc3ccc(OC)cc3)(C(=O)OC)[C@@H]12 | Neurogenic locus notch homolog protein 2 (Homo sapiens) (UniProt Q04721) | 1.72
Cc1ccc(S[C@]2(C(=O)NC(C)C)CC(=O)N(C3CCCCC3)[C@@H]2c2ccc(CO)cc2I)cc1 | Neurogenic locus notch homolog protein 2 (Homo sapiens) (UniProt Q04721) | 0.777
C=CCC(OC(C)=O)[C@@H]1[C@@H](N(Cc2cccc3ccccc23)C(=O)Cc2ccc(OC)cc2)c2cc(OCCCO)ccc2N1C(=O)c1ccc2ccccc2c1 (stereo not given in full) | Neurogenic locus notch homolog protein 2 (Homo sapiens) (UniProt Q04721) | -0.451
C=CCN1Cc2ccccc2[C@H]2OC(c3ccc(OCCCO)cc3)=N[C@@]2(CCS(=O)(=O)c2ccccc2)C1=O | Neurogenic locus notch homolog protein 2 (Homo sapiens) (UniProt Q04721) | 1.47
C=CCN1C(=O)[C@]2(O[C@H](CCn3cc([C@H](O)c4ccccc4)nn3)[C@@H]([Si](C)(C)c3ccc(OC)cc3)[C@@H]2C)c2cc(NC(=O)c3ccc(OC)cc3)ccc21 | Neurogenic locus notch homolog protein 2 (Homo sapiens) (UniProt Q04721) | 0.603
CC1CC/C=C\[C@H]2OC34C=CCN(c5ccc(Cl)cc5)C(=O)[C@H]3N(CCCCCCO)C(=O)[C@]4(C)C2C(=O)O1 (stereo not given in full) | Neurogenic locus notch homolog protein 2 (Homo sapiens) (UniProt Q04721) | -0.705
O=C1c2ccccc2[C@@]2(Cc3ccccc3N(Cc3ccccc3)C2=O)[C@H](c2ccc(CO)cc2)N1Cc1ccccc1Cl | Neurogenic locus notch homolog protein 2 (Homo sapiens) (UniProt Q04721) | -1.04
C=C(CCCC)/C(=C/C[C@H](OC(=O)c1ccncc1)c1ccccc1OCCO)c1cc(C(=O)OC)ccc1OC | Neurogenic locus notch homolog protein 2 (Homo sapiens) (UniProt Q04721) | 0.101
C=CCC(OC(C)=O)[C@@H]1[C@@H](N(Cc2cccc3ccccc23)C(=O)c2ccc(-c3ccccc3)cc2)c2cc(OCCCO)ccc2N1C(=O)Cc1ccc2ccccc2c1 (stereo not given in full) | Neurogenic locus notch homolog protein 2 (Homo sapiens) (UniProt Q04721) | 0.07
C[C@]1(C(=O)O)c2ccccc2C(=O)N(Cc2cc(F)cc(C(F)(F)F)c2)[C@H]1c1ccc(CO)cc1 | Neurogenic locus notch homolog protein 2 (Homo sapiens) (UniProt Q04721) | 0.361
O=C1C[C@@](C(=O)NC2CC2)(c2ccc([N+](=O)[O-])cc2)[C@@H](c2ccc(CO)cc2)N1C1CCCCC1 | Neurogenic locus notch homolog protein 2 (Homo sapiens) (UniProt Q04721) | 0.804
CO[C@H]1O[C@H](CO)[C@@H](OC(=O)Nc2ccc3c(c2)OCO3)[C@H](OC(=O)Nc2ccccc2-c2ccccc2)[C@H]1OC(=O)Nc1ccccc1-c1ccccc1 | Neurogenic locus notch homolog protein 2 (Homo sapiens) (UniProt Q04721) | 1.44
C=C(CCCC)/C(=C/C[C@@H](OC(C)=O)c1ccc(CO)o1)c1cnc2ccccc2c1 | Neurogenic locus notch homolog protein 2 (Homo sapiens) (UniProt Q04721) | 1.31
CC(=O)c1ccc(C(O)C2C=CC3C(=O)N(c4ccccc4)C(=O)C3N2Nc2ccc(C(C)C)cc2)cc1 (stereo not given) | Neurogenic locus notch homolog protein 2 (Homo sapiens) (UniProt Q04721) | 1.37
[N-]=[N+]=Nc1ccccc1C[C@@]1(C(=O)NCc2ccccc2)N=C(c2ccc(OCCCO)cc2)O[C@@H]1c1ccccc1N=[N+]=[N-] | Neurogenic locus notch homolog protein 2 (Homo sapiens) (UniProt Q04721) | 1.09
Cc1ccc(S[C@]2(C(=O)NCc3ccccc3)CC(=O)N(Cc3ccccc3C(F)(F)F)[C@@H]2c2ccc(CO)cc2)cc1 | Neurogenic locus notch homolog protein 2 (Homo sapiens) (UniProt Q04721) | -1.44
CCCCC(O)C1C=CC2C(=O)N(c3ccccc3)C(=O)C2N1Nc1ccc([N+](=O)[O-])cc1 (stereo not given) | Neurogenic locus notch homolog protein 2 (Homo sapiens) (UniProt Q04721) | 1.06
CC(C)OC(=O)CC(=O)CC(O)c1cccc([N+](=O)[O-])c1 (stereo not given) | Neurogenic locus notch homolog protein 2 (Homo sapiens) (UniProt Q04721) | 0.546
COC(=O)[C@@]1(Cc2ccc(F)cc2)[C@H]2c3cc(C(=O)N(C)C)n(CCc4ccc(O)c(O)c4)c3C[C@H]2CN1C(=O)c1ccccc1 | Neurogenic locus notch homolog protein 2 (Homo sapiens) (UniProt Q04721) | 1.68
COC(=O)[C@@]1(Cc2ccccc2)[C@H]2c3cc(C(=O)N(C)C)n(CCO)c3C[C@H]2CN1C(=O)c1ccccc1 | Neurogenic locus notch homolog protein 2 (Homo sapiens) (UniProt Q04721) | 1.39

---

Test system: Fibrinogen (Alexa647-labelled)
experiment description: Alexa647-fibrinogen binding to printed small molecules – biochemical, small-molecule microarray, 635/667 nm fluorescence, artefact control for SMM control-protein annotation, profiling panel (AID 1131);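 further: z-score merges 667 nm fluorescence with per-spot signal-to-noise over triplicate slides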
assay conditions: fibrinogen-A647 binding fluorescence, higher = more signal
# key: entry, value: composite z-score
result type: composite z-score

molecule | test target | assay value
CN(C)CCCCNC(=O)[C@H]1C[C@H]2C(=O)NCC(=O)N2[C@H]1c1ccc(O)cc1 | Fibrinogen (Alexa647-labelled) | -0.473
[N-]=[N+]=Nc1ccccc1[C@@H]1OC(c2ccc(OCCCO)cc2)=N[C@]1(Cc1ccccc1)C(=O)NCCN1CCOCC1 | Fibrinogen (Alexa647-labelled) | 0.993
CN(C)CCCC[C@@H]1NC(=O)[C@@H]2C[C@H](C(=O)NCCCCCCNC(=O)CS)[C@H](c3ccc(O)cc3)N2C1=O | Fibrinogen (Alexa647-labelled) | 0.767
OCCCC1=CC(c2ccc(CN3CCCC3)cc2)N(Cc2cccc(OC(F)(F)F)c2)CC1 (stereo unspecified) | Fibrinogen (Alexa647-labelled) | -0.575
C=C(CCCC)C(=O)CC[C@@H](OC(=O)c1ccccc1-c1ccccc1C(=O)O)c1ccccc1OCCO | Fibrinogen (Alexa647-labelled) | 0.017
COc1ccc([Si](C)(C)[C@@H]2[C@@H](CC(=O)N3CCC[C@H]3CO)O[C@]3(C(=O)N(Cc4ccc(N5CCOC5=O)cc4)c4ccccc43)[C@H]2C)cc1 | Fibrinogen (Alexa647-labelled) | 0.867
CC[C@@H]1C=C(C(=O)O)[C@H](c2ccc(OC)cc2)N1S(=O)(=O)c1ccc(C)cc1 | Fibrinogen (Alexa647-labelled) | -0.342
Cc1ccc(C(C)CC(O)C2C=CC3C(=O)N(C)C(=O)C3N2Nc2ccccc2)o1 (stereo unspecified) | Fibrinogen (Alexa647-labelled) | 0.655
CCCCC(O)C1C=CC2C(=O)N(c3ccccc3)C(=O)C2N1Nc1ccc([N+](=O)[O-])cc1 (stereo unspecified) | Fibrinogen (Alexa647-labelled) | 0.992
COc1ccc([Si](C)(C)[C@H]2[C@H](CC(=O)N3Cc4ccccc4C[C@H]3CO)O[C@@]3(C(=O)N(C)c4c(Br)cc(C)cc43)[C@@H]2C)cc1 | Fibrinogen (Alexa647-labelled) | 0.636
COC(=O)C(CC#Cc1ccc2c(c1)[C@]1(C(=O)N2)[C@H](c2ccccc2OCCO)N2[C@H](c3ccccc3)[C@H](c3ccccc3)OC(=O)[C@H]2[C@@H]1C(=O)N1CCc2cc(OC)c(OC)cc2C1)C(=O)OC | Fibrinogen (Alexa647-labelled) | 0.601
C=CCC(OC(C)=O)[C@@H]1[C@@H](N(Cc2cccc3ccccc23)C(=O)Cc2ccc(OC)cc2)c2cc(OCCCO)ccc2N1C(=O)c1ccc2ccccc2c1 (stereo partly specified) | Fibrinogen (Alexa647-labelled) | 0.475
Cc1ccccc1C(O)C1C=CC2C(=O)N(c3ccccc3)C(=O)C2N1Nc1ccccc1 (stereo unspecified) | Fibrinogen (Alexa647-labelled) | 1.03
CC(C)C(CO)N1C(=O)[C@@H]2C3C(=O)OCCC/C=C\[C@H]3OC23C=CCN(Cc2ccccc2)C(=O)[C@@H]13 (stereo partly specified) | Fibrinogen (Alexa647-labelled) | -2.51
COc1cc(C(O)C2C=CC3C(=O)N(c4ccccc4)C(=O)C3N2Nc2ccccc2F)cc(OC)c1OC (stereo unspecified) | Fibrinogen (Alexa647-labelled) | 1.03
CCCC#C[Si](O[C@H](CC)c1cn(Cc2ccccc2)nn1)(C(C)C)C(C)C | Fibrinogen (Alexa647-labelled) | 0.903

---

experiment description: probe aCHRDL2 binding to arrayed compounds – biochemical, biotinylated probe, 635/667 nm fluorescence, primary screen (AID 1100)
assay conditions: small-molecule microarray, higher = more signal

compound | composite z-score
C=CCC(OC(C)=O)[C@@H]1[C@@H](N(Cc2cccc3ccccc23)C(=O)Cc2ccc(OC)cc2)c2cc(OCCCO)ccc2N1C(=O)c1ccc2ccccc2c1 (some centres undefined) | 0.256
CCCCCC1=C2CNC(Cc3ccccc3)(C(=O)OC)C=C2C(C)C1=O (centres undefined) | 1.37
CC1CC/C=C\[C@H]2OC34C=CCN(c5ccc6ccccc6c5)C(=O)[C@H]3N(C(C)CO)C(=O)[C@@H]4C2C(=O)O1 (some centres undefined) | 0.404
C[N+](C)(C)CCCC[C@@H]1NC(=O)[C@@H]2C[C@H](C(=O)NCc3ccc(F)cc3)[C@H](c3ccc(O)cc3)N2C1=O | 0.216
COCCOC(=O)N1C(=O)[C@@]2(c3cc(C#CCC(C(=O)OC)C(=O)OC)ccc31)[C@H](c1ccc(O)cc1)N1[C@H](c3ccccc3)[C@H](c3ccccc3)OC(=O)[C@H]1[C@@H]2C(=O)Nc1nc2ccccc2s1 | 0.481
CC1=C([C@H](O)CCc2ccccc2)[C@H](CO)n2c(=O)n(-c3ccccc3)c(=O)n2C1 | -0.48
C=CC[C@]1(C(=O)NCC(O)CO)COC(c2ccc(OCCCO)cc2)=N1 (some centres undefined) | 1.05
OCCCC1=CC(c2ccc(CN3CCCC3)cc2)N(Cc2cccc(OC(F)(F)F)c2)CC1 (centres undefined) | 0.983
CCCCC(=C=CC[C@H](O)c1ccc(CO)o1)CCO | -0.485
